Tested on: T-47D breast
Assay: NCI-60 one-dose screen, 48 h (100 = growth as untreated, 0 = no growth, -100 = all killed)
Conditions: 10 µM unless noted
Description: Growth inhibition of the T-47D human tumor cell line is measured as a screen for anti-cancer activity. Cells are grown in 96 well plates and exposed to the test compound for 48 hours. Compounds are tested at a single concentration, which is 10^-5 M for most compounds. The reported endpoint is percent growth (GI% or GIPRCNT), where numbers from 0 - 100% represent growth inhibition, and numbers from -100% - 0 represent cell death. For example, a value of 40 represents 60% growth inhibition. […]
This is part of a sample that, as a whole, favours compounds with a hit. Of some 83,000 tested, about 20% had one in any assay. Calls of active or inactive are those of the source. Rule for the calls: active = growth percent below 10; inactive = the rest.
QUANTITY: growth

Illustrative cases are given below, each with its answer.
CC(=O)NC(C)(C)C(=O)N1CCC[C@H]1C(=O)NC(C)(C)C(=O)N[C@@H](C)C(=O)NC(C)(C)C(=O)NC(C)(C)C(=O)N[C@@H](CCC(N)=O)C(=O)NC(C)(C)C(=O)N[C@H](C(=O)NC(C)(C)C(=O)NCC(=O)N[C@@H](CC(C)C)C(=O)NC(C)(C)C(=O)N1CCC[C@H]1C(=O)N[C@H](C(=O)NC(C)(C)C(=O)NC(C)(C)C(=O)N[C@@H](CCC(N)=O)C(=O)N[C@@H](CCC(N)=O)C(=O)N[C@H](CO)Cc1ccccc1)C(C)C)C(C)C 10% [4.25 µM] (inactive)
CSc1ccc(/C(=N/N=C(N)N)c2ccccc2)cc1 70.9% (inactive)
O=C(COc1ccc(/C=C2\SC(=O)NC2=O)cc1)Nc1ccc(C(=O)/C=C/c2cc3ccccc3nc2Cl)cc1 54.7% (inactive)
O=C(CN1C(=O)S/C(=C\c2ccccc2)C1=O)Nc1ccc(C(=O)/C=C/c2cc3ccccc3nc2Cl)cc1 54.6% (inactive)
C=CCn1c(SCC(=O)Nc2ccc(OC)cc2)nnc1-c1ccc(Cl)cc1 95.5% (inactive)
COc1ccc(/C=N/Nc2nc(N/N=C/c3ccc(OC)cc3O)nc(N3CCOCC3)n2)c(O)c1 42.4% (inactive)

# next compound below
Looking up COCCOc1ccc(-c2csc(NC(=O)CN3CCN(CCO)CC3)n2)cc1NS(=O)(=O)c1cccc2c(N(C)C)cccc12 , I found its growth recorded as 84.5% (inactive)
